assay: Acute toxicity; format: in vivo; conditions: mice; orally, 300 mg/kg suspension; observed for a week after administration
ENDPOINT: deaths

# MOLECULE_SMILES, VALUE_MEASURED
data = [
    ("Cc1ccc2c(c1)c(C(=O)N1CCN(c3ccncc3)CC1)c(-c1ccccc1)n2C.Cl", "No deaths were observed"),
    ("Cn1c(-c2ccccc2)c(C(=O)N2CC[N+]([O-])(c3ccccn3)CC2)c2ccccc21", "No deaths were observed"),
    ("Cc1ccc2c(c1)c(C(=O)N1CCN(c3cccnc3)CC1)c(-c1ccccc1)n2C.Cl.Cl", "No deaths were observed"),
]

###

test: Acute toxicity; format: in vivo; details: mice; orally, 300 mg/kg suspension; observed for a week after administration
ENDPOINT: deaths

# MOLECULE_SMILES, VALUE_MEASURED
records = [
    ("Cl.Cn1c(-c2ccccc2)c(C(=O)N2CCN(c3ccccn3)CC2)c2ccccc21", "No deaths were observed"),
    ("Cc1ccc2c(c1)c(C(=O)N1CCN(c3ccccn3)CC1)c(-c1ccccc1)n2C.Cl", "No deaths were observed"),
    ("Cl.Cn1c(-c2ccccc2)c(C(=O)N2CCN(c3ccc([N+](=O)[O-])cn3)CC2)c2ccccc21", "No deaths were observed"),
    ("Cc1cc2c(C(=O)N3CCN(c4ccncc4)CC3)c(-c3ccccc3)n(C)c2cc1C.Cl", "No deaths were observed"),
]

The reported numbers originate from patent EP1156045A1.
